Provide the recorded IC50 for the entries that follow.
# assayed.system: APOL1 (Homo sapiens, UniProt O14791)
# Sequence (O14791 whole entry S342G/I384M, form open): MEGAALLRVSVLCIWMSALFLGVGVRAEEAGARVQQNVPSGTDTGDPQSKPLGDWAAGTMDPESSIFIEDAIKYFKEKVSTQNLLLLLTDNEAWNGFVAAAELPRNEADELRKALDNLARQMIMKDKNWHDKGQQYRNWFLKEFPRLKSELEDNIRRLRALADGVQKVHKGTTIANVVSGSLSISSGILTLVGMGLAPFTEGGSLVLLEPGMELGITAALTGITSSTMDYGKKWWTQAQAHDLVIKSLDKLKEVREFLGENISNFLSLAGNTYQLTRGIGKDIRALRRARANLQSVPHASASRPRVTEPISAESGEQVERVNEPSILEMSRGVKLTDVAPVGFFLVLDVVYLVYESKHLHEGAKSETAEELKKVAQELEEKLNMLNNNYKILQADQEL
# measurement.protocol: MultiTox-Fluor Multiplex Cytotoxicity Assay in tet-inducible APOL1 T-REx-HEK293 cells
# Type: cell-based
# settings: tet-inducible transgenic APOL1 T-REx-HEK293 cells, 50 ng/mL tet, 24 hours; ratio of dead to live cells; APOL1 variant (G0/G1/G2) not stated; read-out: IP50 (nM) (i.e., IC50 for cell proliferation)

Exercise: I am curious: what IC50 value has been reported for C[C@H]1C[C@@](O)(c2cccc(Cl)c2)CCN1Cc1ccc2c(c1)n(C)c(=O)n2C ?
Solution: ≤ 100 nM

Exercise: Do the same for C[C@@H]1C[C@](O)(c2ccc(Cl)c(Cl)c2)CCN1Cc1ccc2c(c1)n(C)c(=O)n2C please
Solution: 100 to 500 nM

Exercise: Do the same for Cc1nc(CN2CC[C@](O)(c3cccc(Cl)c3)C[C@@H]2C)co1 please
Solution: 500 to 5000 nM

Exercise: Do the same for C[C@H]1C[C@@](O)(c2cccc(Cl)c2)CCN1Cc1ncco1 please
Solution: 500 to 5000 nM

Exercise: Do the same for C[C@H]1C[C@@](O)(c2cc(F)cc(Cl)c2)CCN1Cc1ccc2c(c1)n(C)c(=O)n2C please
Solution: ≤ 100 nM

Exercise: Do the same for C[C@H]1C[C@@](O)(c2cccc(Cl)c2)CCN1Cc1ccc(C(N)=O)cc1 please
Solution: 100 to 500 nM

Exercise: Do the same for C[C@@H]1C[C@](O)(c2ccc(Cl)cc2)CCN1Cc1ccc2c(c1)n(C)c(=O)n2C please
Solution: ≤ 100 nM
